Attribution: the supplement of paper PMC5412046

- Test system: SB.mhdgc-1
- assay explanation: AC50 for growth inhibition (viability) (log10 M); higher = less potent
- test settings: SB.mhdgc-1 (hereditary c.1380delA CDH1 gastric cancer)
Quick rule for you: AC50 for growth inhibition (log10 M) under -5 gets fulfilled, anything else gets not fulfilled.

Input line: hey, is AC50 for growth inhibition (log10 M) for CC/1=C(\O)C(=O)\C=C2/C1=C/C=C3\[C@@]2(C)CC[C@@]4(C)[C@@H]5C[C@@](C)(CC[C@]5(C)CC[C@]34C)C(O)=O [Tripterin] lower than -5 or not?
Output line: fulfilled

* * *

- Test system: SB.mhdgc-1
- assay explanation: AC50 for growth inhibition (viability) (log10 M); higher = less potent
- test settings: SB.mhdgc-1 (hereditary c.1380delA CDH1 gastric cancer)
assay readout: AC50 for growth inhibition (log10 M)
Provide a numeric answer; units are not to be included.

compound: COc1cccc2cc(-c3nc(C4CCC(C(=O)O)CC4)n4ncnc(N)c34)[nH]c12 (centres undefined)
AC50 for growth inhibition (log10 M): -7.58
--
compound: C[C@]12CC[C@H]3[C@@H](CCC/4=C/C(=O)CC[C@]34C)[C@@H]1CC[C@@H]2OC(=O)CCC5CCCC5 [Testosterone cypionate]
AC50 for growth inhibition (log10 M): -4.83
--
compound: CN1CCN(CCOc2cc(OC3CCOCC3)c3c(Nc4c(Cl)ccc5c4OCO5)ncnc3c2)CC1
AC50 for growth inhibition (log10 M): -4.63

Proceed to the following item.
AC50 for growth inhibition (log10 M) in this record for `Nc1n[nH]c2nnc(-c3c(-c4ccccc4)nn4ccccc34)cc12` : -5.03
